System: erythroleukemia cell line K-562
Experiment: Tumor cell line growth inhibition, K-562
Assay type: cell-based
Conditions: 10. μg/mL, day 2
Peptide text beside a SMILES is read from it. * marks the point of attachment. Cbz = O=C(OCc1ccccc1)*; CH2Cl = ClC*
reported_metric: % Growth Relative to Control Cultures (%)

{"columns": ["compound", "assayed_target", "unit_string", "experimental_value"],
 "data": [
  ["CC(C)CC(NC(=O)OC(C)(C)C)C(=O)CBr (stereo not drawn) [Boc-LeuCH2 Br]", "erythroleukemia cell line K-562", "%", 22],
  ["CC(=O)N[C@@H](Cc1ccccc1)C(=O)NCC(=O)N[C@@H](C)C(=O)N[C@@H](CC(C)C)C(=O)CCl [Ac-Phe-Gly-Ala-LeuCH2 Cl] (Ac-FGAL-CH2Cl)", "erythroleukemia cell line K-562", "%", 77],
  ["CC(C)C[C@H](NC(=O)OC(C)(C)C)C(=O)CCl [Boc-LeuCH2 Cl]", "erythroleukemia cell line K-562", "%", 17],
  ["CC(C)(C)OC(=O)N[C@@H](Cc1ccc(O)cc1)C(=O)CCl [Boc-TyrCH2 Cl]", "erythroleukemia cell line K-562", "%", 7],
  ["CC(C)C[C@H](NC(=O)[C@H](CO)NC(=O)CNC(=O)[C@H](Cc1ccccc1)NC(=O)OCc1ccccc1)C(=O)CCl [Z--Phe-Gly-Ser-LeuCH2 Cl, Z-Phe-Gly-Ser-LeuCH2 Cl] (Cbz-FGSL-CH2Cl)", "erythroleukemia cell line K-562", "%", 14],
  ["CC(C)C[C@H](NC(=O)[C@H](C)NC(=O)[C@H](CO)NC(=O)[C@H](Cc1ccccc1)NC(=O)OCc1ccccc1)C(=O)CCl [Z--Phe-Ser-Ala-LeuCH2 Cl, Z-Phe-Ser-Ala-LeuCH2 Cl] (Cbz-FSAL-CH2Cl)", "erythroleukemia cell line K-562", "%", 4]
]}

Recorded values, source patent US4582821A.
